System: N. gonorrhoeae clinical isolates
assayComment: MIC, agar dilution (CLSI)
Assay type: cell-based, Neisseria gonorrhoeae
appliedConditions: Neisseria gonorrhoeae, strain CDC48 (GCREF2012 046); read-out: MIC
Each entry below carries its reported MIC.

[
  {
    "compoundString": "C=CC1=C(C(=O)O)N2C(=O)[C@@H](NC(=O)/C(=N\\OCC(=O)O)c3csc(N)n3)[C@H]2SC1",
    "MIC": "0.125 µg/mL"
  },
  {
    "compoundString": "CC[C@H]1OC(=O)[C@H](C)[C@@H](O[C@H]2C[C@@](C)(OC)[C@@H](O)[C@H](C)O2)[C@H](C)[C@@H](O[C@@H]2O[C@H](C)C[C@H](N(C)C)[C@H]2O)[C@](C)(O)C[C@@H](C)CN(C)[C@H](C)[C@@H](O)[C@]1(C)O",
    "MIC": "0.25 µg/mL"
  },
  {
    "compoundString": "CNc1cc(F)cc2c1[nH]c1nc(Oc3cnc(C)nc3)nc(N3CCC4(CC3)CO[C@@H](CO)C4)c12",
    "MIC": "0.0039 µg/mL"
  },
  {
    "compoundString": "CO/N=C(\\C(=O)N[C@@H]1C(=O)N2C(C(=O)O)=C(CSc3nc(=O)c(=O)[nH]n3C)CS[C@H]12)c1csc(N)n1",
    "MIC": "0.031 µg/mL"
  }
]

* * *

Each entry below carries its reported MIC.
Tested on: N. gonorrhoeae clinical isolates
assayComment: MIC, agar dilution (CLSI)
Assay type: cell-based, Neisseria gonorrhoeae
appliedConditions: Neisseria gonorrhoeae, strain CDC43 (GCREF2012 040); read-out: MIC

[
  {
    "molecule": "CNc1cc(F)cc2c1[nH]c1nc(Oc3cnc(C)nc3)nc(N3CCC4(CC3)CO[C@@H](CO)C4)c12 [JSF-2414]",
    "unit": "µg/mL",
    "MIC": 0.0039
  },
  {
    "molecule": "C=CC1=C(C(=O)O)N2C(=O)[C@@H](NC(=O)/C(=N\\OCC(=O)O)c3csc(N)n3)[C@H]2SC1 [Cfx, cefixime]",
    "unit": "µg/mL",
    "MIC": 0.25
  },
  {
    "molecule": "CC[C@H]1OC(=O)[C@H](C)[C@@H](O[C@H]2C[C@@](C)(OC)[C@@H](O)[C@H](C)O2)[C@H](C)[C@@H](O[C@@H]2O[C@H](C)C[C@H](N(C)C)[C@H]2O)[C@](C)(O)C[C@@H](C)CN(C)[C@H](C)[C@@H](O)[C@]1(C)O [Azi, azithromycin]",
    "unit": "µg/mL",
    "MIC": 0.25
  },
  {
    "molecule": "CO/N=C(\\C(=O)N[C@@H]1C(=O)N2C(C(=O)O)=C(CSc3nc(=O)c(=O)[nH]n3C)CS[C@H]12)c1csc(N)n1 [Cro, ceftriaxone]",
    "unit": "µg/mL",
    "MIC": 0.031
  }
]

* * *

Each entry below carries its reported MIC.
Test system: N. gonorrhoeae clinical isolates
assayComment: MIC, agar dilution (CLSI)
Assay type: cell-based, Neisseria gonorrhoeae
appliedConditions: Neisseria gonorrhoeae, strain CDC37 (GCREF2012 034); read-out: MIC
readout: MIC (µg/mL)

[
  {
    "compound": "CNc1cc(F)cc2c1[nH]c1nc(Oc3cnc(C)nc3)nc(N3CCC4(CC3)CO[C@@H](CO)C4)c12 [JSF-2414]",
    "studySystem": "N. gonorrhoeae clinical isolates",
    "unit": "µg/mL",
    "reportedValue": 0.0039
  },
  {
    "compound": "CO/N=C(\\C(=O)N[C@@H]1C(=O)N2C(C(=O)O)=C(CSc3nc(=O)c(=O)[nH]n3C)CS[C@H]12)c1csc(N)n1 [Cro, ceftriaxone]",
    "studySystem": "N. gonorrhoeae clinical isolates",
    "unit": "µg/mL",
    "reportedValue": 0.031
  },
  {
    "compound": "CC[C@H]1OC(=O)[C@H](C)[C@@H](O[C@H]2C[C@@](C)(OC)[C@@H](O)[C@H](C)O2)[C@H](C)[C@@H](O[C@@H]2O[C@H](C)C[C@H](N(C)C)[C@H]2O)[C@](C)(O)C[C@@H](C)CN(C)[C@H](C)[C@@H](O)[C@]1(C)O [Azi, azithromycin]",
    "studySystem": "N. gonorrhoeae clinical isolates",
    "unit": "µg/mL",
    "reportedValue": 0.25
  },
  {
    "compound": "C=CC1=C(C(=O)O)N2C(=O)[C@@H](NC(=O)/C(=N\\OCC(=O)O)c3csc(N)n3)[C@H]2SC1 [Cfx, cefixime]",
    "studySystem": "N. gonorrhoeae clinical isolates",
    "unit": "µg/mL",
    "reportedValue": 0.125
  }
]
